Measured inhibition at 0.001 µM values are reported for all entries that follow.
- TESTED_SYSTEM: Leukotriene, Cysteinyl CysLT1 (Cavia porcellus, UniProt Q2NNR5)
- Construct: from tissue; host or cells: guinea pig lung membrane
- Sequence (Q2NNR5 1-340): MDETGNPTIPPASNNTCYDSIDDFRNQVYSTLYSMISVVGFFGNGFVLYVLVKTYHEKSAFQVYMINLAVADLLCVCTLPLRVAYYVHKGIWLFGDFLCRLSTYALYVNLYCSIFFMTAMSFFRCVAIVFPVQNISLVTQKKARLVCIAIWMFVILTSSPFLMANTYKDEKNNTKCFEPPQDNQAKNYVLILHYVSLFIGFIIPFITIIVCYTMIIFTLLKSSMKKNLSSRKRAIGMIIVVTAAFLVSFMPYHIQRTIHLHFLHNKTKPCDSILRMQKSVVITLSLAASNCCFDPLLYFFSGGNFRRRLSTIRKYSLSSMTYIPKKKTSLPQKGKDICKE
- PROTOCOL_DESCRIPTION: receptor radio-ligand-binding assay (Tritiated LTD4 as the ligand), Guinea pig lung membrane
- EXPERIMENTAL_PARAMETERS: 0.5 h; 1 nM test compound; 0.2 nM 3H LTD4, Guinea pig lung membrane; read-out: % Inhbition (in nM) 1
Give a bare numeral; the unit % is implied.

For orientation, consider the following solved cases.
compound="CS(=O)(=O)NC(CCc1ccccc1C(=O)O)c1cccc(/C=C/c2ccc3ccc(Cl)cc3n2)c1 (centres unmarked) [Ia.11]" tested_system="Leukotriene, Cysteinyl CysLT1 (Cavia porcellus, UniProt Q2NNR5)" measure="inhibition at 0.001 µM" measurement_units=% numeric_result=46
compound="COc1ccc(CCC2(c3cccc(/C=C/c4ccc5ccc(Cl)cc5n4)c3)OCCO2)c(C(=O)O)c1 [Ib.67]" tested_system="Leukotriene, Cysteinyl CysLT1 (Cavia porcellus, UniProt Q2NNR5)" measure="inhibition at 0.001 µM" measurement_units=% numeric_result=72
compound="O=C(O)c1ccccc1CCC1(c2cccc(/C=C/c3ccc4ccc(Cl)cc4n3)c2)OCCO1 [Ib.4]" tested_system="Leukotriene, Cysteinyl CysLT1 (Cavia porcellus, UniProt Q2NNR5)" measure="inhibition at 0.001 µM" measurement_units=% numeric_result=33

Sample CCN(CC)C(=O)c1ccccc1CCC(NC(=O)c1ccccc1C(=O)O)c1cccc(/C=C/c2ccc3ccc(Cl)cc3n2)c1 (centres unmarked) [Ia.38] — what was its inhibition at 0.001 µM?
0.3

If you can, please state the reported inhibition at 0.001 µM value of CCOC(COc1ccc(OC)cc1C(=O)NS(C)(=O)=O)c1cccc(/C=C/c2ccc3ccc(Cl)cc3n2)c1 (centres unmarked) [Ia.157] .
62

###

- TESTED_SYSTEM: Leukotriene, Cysteinyl CysLT1 (Cavia porcellus, UniProt Q2NNR5)
- Construct: from tissue; host or cells: guinea pig lung membrane
- PROTOCOL_DESCRIPTION: receptor radio-ligand-binding assay (Tritiated LTD4 as the ligand), Guinea pig lung membrane
- EXPERIMENTAL_PARAMETERS: 0.5 h; 1 nM test compound; 0.2 nM 3H LTD4, Guinea pig lung membrane; read-out: % Inhbition (in nM) 1
- Experimental: The primary in-vitro biological screening for the compounds carried-out involving receptor radio-ligand-binding assay (Tritiated LTD4 as the ligand) by known methods described in literature [a). Mong et al. European Journal of Pharmacology (102); 1984 1-11b). […] Non Specific Binding is determined by incubating the membrane with 0.2 nM 3H LTD4 in presence of 1 uM of unlabeled LTD4. […] The membrane is counted in a liquid scintillation counter to calculate the bound radioactivity. […]
Quick reference: inhibition at 0.001 µM of the listed items.
Write it as a number; the unit % goes unstated.

Observe how each entry below is paired with its result.
molecule="CCN(CC)C(=O)c1ccccc1CCC(NC(=O)c1ccccc1C(=O)OC)c1cccc(/C=C/c2ccc3ccc(Cl)cc3n2)c1 (stereo not drawn)" measurement_units=% numeric_result=35
molecule=O=C(O)c1ccccc1SCC1(c2cccc(/C=C/c3ccc4ccc(Cl)cc4n3)c2)OCCO1 measurement_units=% numeric_result=31

// next item, inhibition at 0.001 µM requested
Which measured inhibition at 0.001 µM value corresponds to `CCOc1ccc(CCC2(c3cccc(/C=C/c4ccc5ccc(Cl)cc5n4)c3)OCCO2)c(C(=O)O)c1` ?
6

###

- TESTED_SYSTEM: Leukotriene, Cysteinyl CysLT1 (Cavia porcellus, UniProt Q2NNR5)
- Construct: from tissue; host or cells: guinea pig lung membrane
- PROTOCOL_DESCRIPTION: receptor radio-ligand-binding assay (Tritiated LTD4 as the ligand), Guinea pig lung membrane
- EXPERIMENTAL_PARAMETERS: 0.5 h; 10 nM test compound; 0.2 nM 3H LTD4, Guinea pig lung membrane; read-out: % Inhbition (in nM) 10
# reported inhibition at 0.01 µM; entries follow
Number only, in %; omit the unit.

compound="CCN(CC)C(=O)c1ccccc1CCC(NC(=O)c1ccccc1C(=O)O)c1cccc(/C=C/c2ccc3ccc(Cl)cc3n2)c1 (stereo not shown)" tested_system="Leukotriene, Cysteinyl CysLT1 (Cavia porcellus, UniProt Q2NNR5)" measurement_units=% numeric_result=69

inhibition at 0.01 µM for `O=C(c1ccccc1CCC1(c2cccc(/C=C/c3ccc4ccc(Cl)cc4n3)c2)OCCO1)N1CCCC1` ?
99

Look at this compound and give its reported inhibition at 0.01 µM. `O=C(O)c1cc2c(cc1CCC1(c3cccc(/C=C/c4ccc5ccc(Cl)cc5n4)c3)OCCO1)OCCO2`
82

I am curious: what inhibition at 0.01 µM value has been reported for `CCOc1ccc(CCC2(c3cccc(/C=C/c4ccc5ccc(Cl)cc5n4)c3)OCCO2)c(C(=O)O)c1` ?
53

###

- TESTED_SYSTEM: Leukotriene, Cysteinyl CysLT1 (Cavia porcellus, UniProt Q2NNR5)
- Construct: from tissue; host or cells: guinea pig lung membrane
- PROTOCOL_DESCRIPTION: receptor radio-ligand-binding assay (Tritiated LTD4 as the ligand), Guinea pig lung membrane
- EXPERIMENTAL_PARAMETERS: 0.5 h; 10 nM test compound; 0.2 nM 3H LTD4, Guinea pig lung membrane; read-out: % Inhbition (in nM) 10
Label scheme for inhibition at 0.01 µM: lower than 70% is Criterion not met, 70% and above is Criterion met.

Textbook exercise: given the entry `O=C(O)c1ccc(C(=O)O)c(CCC2(c3cccc(/C=C/c4ccc5ccc(Cl)cc5n4)c3)OCCO2)c1` , state whether its inhibition at 0.01 µM is greater than or equal to 70%.
Criterion met

Is the recorded value of inhibition at 0.01 µM equal to or greater than 70% for this compound? CN(C(=O)c1ccco1)C(CCc1ccccc1C(=O)O)c1cccc(/C=C/c2ccc3ccc(Cl)cc3n2)c1 (stereo not drawn)
Criterion not met

For this compound, is measured inhibition at 0.01 µM 70% or higher? `O=C(O)c1cc2c(cc1CCC1(c3cccc(/C=C/c4ccc5ccc(Cl)cc5n4)c3)OCCCO1)OCO2`
Criterion met

Is inhibition at 0.01 µM for `Cc1oc(=O)oc1COC(=O)c1ccccc1CCC1(c2cccc(/C=C/c3ccc4ccc(Cl)cc4n3)c2)OCCO1` at or above 70%?
Criterion met

Reported inhibition at 0.01 µM reaches at least 70% for `COc1ccc(CCC2(c3cccc(/C=C/c4ccc5ccc(Cl)cc5n4)c3)OCCO2)c(-c2nnn[nH]2)c1` ?
Criterion met

Assess whether reported inhibition at 0.01 µM for `O=C(O)c1ccccc1SCC1(c2cccc(/C=C/c3ccc4ccc(Cl)cc4n3)c2)OCCO1` sits at 70% or higher.
Criterion not met

###

- TESTED_SYSTEM: Leukotriene, Cysteinyl CysLT1 (Cavia porcellus)
- Construct: from tissue; host or cells: guinea pig lung membrane
- Sequence (Q2NNR5 1-340): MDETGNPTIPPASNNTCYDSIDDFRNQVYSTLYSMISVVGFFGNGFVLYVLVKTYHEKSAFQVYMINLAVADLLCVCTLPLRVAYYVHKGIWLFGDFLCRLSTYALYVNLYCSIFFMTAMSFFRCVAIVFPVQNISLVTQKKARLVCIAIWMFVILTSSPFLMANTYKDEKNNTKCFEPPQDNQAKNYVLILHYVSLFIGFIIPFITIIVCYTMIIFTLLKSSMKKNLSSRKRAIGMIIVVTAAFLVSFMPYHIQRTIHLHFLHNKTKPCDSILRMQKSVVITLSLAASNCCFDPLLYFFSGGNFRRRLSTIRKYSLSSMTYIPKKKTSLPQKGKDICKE
- PROTOCOL_DESCRIPTION: receptor radio-ligand-binding assay (Tritiated LTD4 as the ligand), Guinea pig lung membrane
- EXPERIMENTAL_PARAMETERS: 0.5 h; 1 nM test compound; 0.2 nM 3H LTD4, Guinea pig lung membrane; read-out: % Inhbition (in nM) 1
Assign TRUE whenever inhibition at 0.001 µM does not fall below 30%; assign FALSE whenever it does.

compound=C#CCO[C@H](COc1ccc(OC)cc1C(=O)O)c1cccc(/C=C/c2ccc3ccc(Cl)cc3n2)c1 tested_system="Leukotriene, Cysteinyl CysLT1 (Cavia porcellus)" assigned_category=TRUE

Next up:
Identify whether the reported inhibition at 0.001 µM of the following compound is 30% or greater: O=C(O)c1ccccc1CCC(NC(=O)C(F)(F)F)c1cccc(/C=C/c2ccc3ccc(Cl)cc3n2)c1 (centres unmarked)
FALSE
